method description: Solubility of compound assessed as precipitate formation at 250 uM at pH 2 to 8 incubated for 30 mins in presence of 3 to 10 mM CaCl2 by turbidimetric assay
Type: physicochemical
assay setup: buffer, pH 2, 0.5 h

{"smiles record": "O=S(=O)(O)O[C@H]1[C@H](OP(O)(O)=S)[C@H](OS(=O)(=O)O)[C@H](OP(O)(O)=S)[C@@H](OS(=O)(=O)O)[C@@H]1OP(O)(O)=S", "solubility": "Soluble"}
{"smiles record": "O=S(=O)(O)O[C@@H]1[C@@H](OP(O)(O)=S)[C@H](OS(=O)(=O)O)[C@H](OS(=O)(=O)O)[C@H](OS(=O)(=O)O)[C@H]1OP(O)(O)=S", "solubility": "Soluble"}
{"smiles record": "OP(O)(=S)O[C@H]1[C@H](OP(O)(O)=S)[C@@H](OP(O)(O)=S)[C@H](OP(O)(O)=S)[C@@H](OP(O)(O)=S)[C@H]1OP(O)(O)=S", "solubility": "Soluble"}
{"smiles record": "O=S(=O)(O)O[C@@H]1[C@@H](OS(=O)(=O)O)[C@H](OS(=O)(=O)O)[C@H](OP(O)(O)=S)[C@H](OS(=O)(=O)O)[C@H]1OS(=O)(=O)O", "solubility": "Soluble"}

Just for reference, ChEMBL document CHEMBL5608240 is where these values come from.
